Hello, the source for this data is the supplement of paper PMC10065799, in case you need it.

# target.entity: MERTK (UniProt Q12866)
# Sequence (Q12866 whole entry, looked up): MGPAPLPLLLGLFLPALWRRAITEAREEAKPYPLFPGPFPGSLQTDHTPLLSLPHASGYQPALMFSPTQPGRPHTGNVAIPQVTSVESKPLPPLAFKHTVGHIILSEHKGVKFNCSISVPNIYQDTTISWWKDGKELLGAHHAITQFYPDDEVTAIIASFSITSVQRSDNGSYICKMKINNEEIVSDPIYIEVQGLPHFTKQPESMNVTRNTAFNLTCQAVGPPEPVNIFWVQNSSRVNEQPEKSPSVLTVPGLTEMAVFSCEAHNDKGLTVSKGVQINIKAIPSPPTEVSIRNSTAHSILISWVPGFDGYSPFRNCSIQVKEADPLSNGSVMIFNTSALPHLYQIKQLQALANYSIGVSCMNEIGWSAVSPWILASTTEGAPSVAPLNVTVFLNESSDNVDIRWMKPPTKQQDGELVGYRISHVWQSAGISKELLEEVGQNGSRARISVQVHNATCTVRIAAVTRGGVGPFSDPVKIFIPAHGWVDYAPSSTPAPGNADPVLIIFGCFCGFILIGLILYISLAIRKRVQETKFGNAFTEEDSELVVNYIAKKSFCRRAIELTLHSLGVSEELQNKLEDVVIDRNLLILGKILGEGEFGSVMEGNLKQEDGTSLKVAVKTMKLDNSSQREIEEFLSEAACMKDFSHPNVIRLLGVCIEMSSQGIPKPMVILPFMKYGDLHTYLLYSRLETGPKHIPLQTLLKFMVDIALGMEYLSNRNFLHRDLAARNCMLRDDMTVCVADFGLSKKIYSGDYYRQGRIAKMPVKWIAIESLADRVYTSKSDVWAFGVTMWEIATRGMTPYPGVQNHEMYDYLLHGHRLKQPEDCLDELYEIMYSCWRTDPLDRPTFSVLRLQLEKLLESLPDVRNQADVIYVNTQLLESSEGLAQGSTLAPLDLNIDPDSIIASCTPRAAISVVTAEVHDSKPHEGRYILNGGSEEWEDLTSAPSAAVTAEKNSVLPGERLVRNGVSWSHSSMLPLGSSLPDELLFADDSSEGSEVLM
# procedure.details: phosphorylation enrichment, bacterial display (enrichment ratio); higher = better substrate or ligand; peptides without Tyr show the background;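 further: 11-residue human phosphosite peptides and single-mutation variants displayed on the E. coli surface, counted by deep sequencing, each peptide's frequency after selection divided by its frequency in the unselected input library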;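 further: frequency after pTyr selection over input frequency; kinase dosed for 20-30% of maximal phosphorylation in three min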
Binning rule for recorded phosphorylation enrichment: bottom bin (below 0.4), middle bin (0.4 to below 0.6), top bin (0.6 or more)

>>> answer_label("RSHRSYSCQVM [IGLL1_Y192_R189H]")
"middle bin"
>>> answer_label("DLHGIYQKLVI")
"top bin"
>>> answer_label("EVEPRYVVLFD [ERCC4_Y577_YF]")
"top bin"
>>> answer_label("NYYDTYIKTCL [IQGAP2_Y1445]")
"top bin"
>>> answer_label("TVQVAYFTMMM [SPATA17_Y83_YF]")
"middle bin"
>>> answer_label("LSGVIYVILGK [PMP22_Y153_R157G]")
"top bin"
>>> answer_label("KASIMYPSNNC [CXCL11_Y52]")
"bottom bin"
>>> answer_label("FHIDHYLGKEM [G6PD_Y202_R198H_YF]")
"bottom bin"
>>> answer_label("LVKDGYQMAQP [CSF1R_Y873]")
"bottom bin"
>>> answer_label("QFRFIYMAVQH [PTPN11_Y515_YF]")
"top bin"
>>> answer_label("STEAIYRRYSK [SH3PXD2B_Y42]")
"middle bin"
>>> answer_label("DGTIVCTGLET [USH2A_Y4487_Y4487C]")
"middle bin"
>>> answer_label("LGMSQYFRLFN [CPT2_Y217_D213G]")
"middle bin"
>>> answer_label("TGDFGYRTPGF [TNS2_Y668_A670T_YF]")
"middle bin"
>>> answer_label("LCHELYNTIRD [PBRM1_Y54_V49L]")
"top bin"
>>> answer_label("IHADIYRWFNI [MARS1_Y344]")
"top bin"
>>> answer_label("LSIDRYHAIVF [NPSR1_Y147_YF]")
"top bin"
>>> answer_label("TNGFTYGSSHQ [MANEA_Y331]")
"middle bin"
>>> answer_label("IIRFNYLLDVL [FGFR4_Y237_S232I_YF]")
"middle bin"
>>> answer_label("IGVDSYSVCKR [RPS6KA3_Y433_G431D]")
"bottom bin"
>>> answer_label("EAESWYQTKFE [KRT75_Y342_YF]")
"middle bin"
>>> answer_label("EVLKNYNQQKD [GOLGA4_Y1551]")
"middle bin"
>>> answer_label("SGIYQYSIAKF [FOXL2_Y83_I84S]")
"top bin"
>>> answer_label("KACNPYKPPGP")
"middle bin"
>>> answer_label("QTPVLYAMLDH [MPZ_Y220]")
"top bin"
>>> answer_label("HRGHLYLAIEY [TEK_Y899_Y897H]")
"middle bin"
>>> answer_label("DDDPEYRKFLE [UPF3B_Y160]")
"middle bin"
>>> answer_label("TGEKPYECVQC [ZNF24_Y335]")
"middle bin"
>>> answer_label("EVEPRYVVLYD [ERCC4_Y577]")
"top bin"
>>> answer_label("KDHPDYEFQPR [SOX9_Y172_K173E_YF]")
"bottom bin"
>>> answer_label("RLAKTYKTTLE [ALB_Y377_E378K]")
"bottom bin"
>>> answer_label("LEKISYVYMKR [SSX7_Y48]")
"top bin"
>>> answer_label("SHLEDYPFDAE [AKR1B10_Y310_N313D]")
"bottom bin"
>>> answer_label("RTEAQYRFIFM [PTPN11_Y511_Q506R_YF]")
"middle bin"
>>> answer_label("QRIYQYIRSRF [DYRK1B_Y273_Q275R]")
"top bin"
>>> answer_label("LLKAKYELLNA [POLR3A_Y714]")
"middle bin"
>>> answer_label("DRLASYPEKVR [KRT13_Y118_L119P]")
"bottom bin"
>>> answer_label("GIMEEYQLPFF [BMPR1A_Y453_V450M_YF]")
"middle bin"
>>> answer_label("DDLTDYLMKIL [ACTA1_Y190_R185D]")
"middle bin"
>>> answer_label("YGAHNHHPLPV [OAT_Y55_Y55H]")
"middle bin"
>>> answer_label("ITRDIYETDFF [INSR_Y1185_M1180I_YF]")
"top bin"
>>> answer_label("YETSHYPASPD [CTNND2_Y1217]")
"middle bin"
>>> answer_label("YAFQLYDLDPD [CHP2_Y123_R127P]")
"top bin"
>>> answer_label("LGSNGYKKLLK [SEPSECS_Y334]")
"top bin"
>>> answer_label("VDDEIYYFRKP [PBRM1_Y1289]")
"top bin"
>>> answer_label("ALHHPYGCDVE [ABL2_Y80_R78H]")
"middle bin"
>>> answer_label("STASGYSDVTD [DTX2_Y425]")
"bottom bin"
>>> answer_label("KGKLIYLLGDS [NXPE1_Y350]")
"bottom bin"
>>> answer_label("YETDYYQKGGK [INSR_Y1190_R1191Q]")
"top bin"
>>> answer_label("VHKKGYNKLNQ [ZNF676_Y98_E96K]")
"bottom bin"
>>> answer_label("KSVSQYLEMDK [CAGE1_Y438]")
"bottom bin"
>>> answer_label("DAVAVYHGKIS [SH2D1A_Y7]")
"bottom bin"
>>> answer_label("QGIYGYHHYMQ [UFSP2_Y287]")
"top bin"
